Listing: pIC50 of selected molecules
Test system: K562
test-details: Cytotoxicity against human K562 cells after 72 hrs by MTT assay
Type: functional, cell-based
condition-notes: K562, 72 h
The read-out pIC50 is expressed as -log10 of concentration in moles per litre.

Look over these answered cases.
**Query** Quick check: pIC50 of "O=c1[nH]cc(F)c(=O)[nH]1" ?
**Result** 4.34

**Query** I would be grateful if you could share the reported pIC50 for Oc1ccc(C2C/C(=N\NC(=S)N3CCNCC3)c3ccc(O)cc3O2)cc1 (configuration not stated) .
**Result** 4.58

**Query** Endpoint output: pIC50 of Oc1ccc(C2C/C(=N\NC(=S)N3CCOCC3)c3ccc(O)cc3O2)cc1 (configuration not stated) . Value?
**Result** 4.53

**Query** # lookup: pIC50 of CC(C)NC(=S)N/N=C1\CC(c2ccc(O)cc2)Oc2cc(O)ccc21 (configuration not stated)
**Result** 4.67

**Query** // pIC50 lookup, key: Oc1ccc(C2C/C(=N\NC(=S)N3CCCC3)c3ccc(O)cc3O2)cc1 (configuration not stated)
**Result** 4.76

Further cases:
**Query** Can you look up the measured pIC50 of CCCN(CCC)C(=S)N/N=C1\CC(c2ccc(O)cc2)Oc2cc(O)ccc21 (configuration not stated) for me?
**Result** 4.91

**Query** I'd like to know its pIC50. The molecule in question is CCCCNC(=S)N/N=C1\CC(c2ccc(O)cc2)Oc2cc(O)ccc21 (configuration not stated)
**Result** 4.77

**Query** Please give the measured pIC50 for this molecule: CN1CCN(C(=S)N/N=C2\CC(c3ccc(O)cc3)Oc3cc(O)ccc32)CC1 (configuration not stated)
**Result** 4.64

These measurements were taken from ChEMBL document CHEMBL1208677.
